Where do these numbers come from? They come from patent US9296725B2.

Molecular target: JAK2 (Homo sapiens, UniProt O60674)
Construct: endogenous in cells; host or cells: Molt4 (ATCC CRL-1582) and Ramos (ATCC CRL-1596), mixed lysate 1:2
Sequence (O60674 whole entry): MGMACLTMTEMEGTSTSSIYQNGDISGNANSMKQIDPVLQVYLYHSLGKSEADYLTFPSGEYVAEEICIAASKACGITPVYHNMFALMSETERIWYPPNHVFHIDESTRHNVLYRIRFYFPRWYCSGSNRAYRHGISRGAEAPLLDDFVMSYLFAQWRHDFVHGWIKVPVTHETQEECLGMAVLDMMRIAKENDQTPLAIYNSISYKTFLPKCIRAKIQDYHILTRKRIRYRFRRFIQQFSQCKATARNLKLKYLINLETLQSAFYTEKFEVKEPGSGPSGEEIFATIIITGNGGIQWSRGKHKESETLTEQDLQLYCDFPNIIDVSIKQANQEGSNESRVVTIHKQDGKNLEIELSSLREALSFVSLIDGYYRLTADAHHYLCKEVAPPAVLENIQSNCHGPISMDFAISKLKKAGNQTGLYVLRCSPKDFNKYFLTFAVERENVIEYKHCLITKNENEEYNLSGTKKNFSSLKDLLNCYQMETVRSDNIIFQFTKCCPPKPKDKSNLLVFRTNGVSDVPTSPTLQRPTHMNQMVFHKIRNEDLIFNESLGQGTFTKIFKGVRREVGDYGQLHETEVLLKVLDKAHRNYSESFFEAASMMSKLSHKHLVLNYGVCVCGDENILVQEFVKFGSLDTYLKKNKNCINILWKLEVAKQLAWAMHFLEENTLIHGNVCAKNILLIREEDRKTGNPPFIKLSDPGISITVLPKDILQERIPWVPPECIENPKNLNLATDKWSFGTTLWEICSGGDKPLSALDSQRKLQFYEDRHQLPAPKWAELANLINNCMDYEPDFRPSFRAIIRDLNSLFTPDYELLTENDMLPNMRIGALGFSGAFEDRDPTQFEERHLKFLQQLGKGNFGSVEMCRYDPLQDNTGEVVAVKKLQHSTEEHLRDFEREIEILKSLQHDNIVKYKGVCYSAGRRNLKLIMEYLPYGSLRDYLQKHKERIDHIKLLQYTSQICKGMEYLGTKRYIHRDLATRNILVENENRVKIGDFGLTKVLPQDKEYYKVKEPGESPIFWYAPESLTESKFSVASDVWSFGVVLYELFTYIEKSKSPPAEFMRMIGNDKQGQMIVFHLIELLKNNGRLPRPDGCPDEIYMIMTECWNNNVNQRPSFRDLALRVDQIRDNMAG
Experiment: Kinobeads assay, JAK2 (competition binding in mixed Molt4/Ramos cell lysate, dot blot detection)
Settings: read-out: JAK2 Band (Kinobeads assay potency, IC50)
value_kind: IC50

Below are worked cases with known answers.
CNC(=O)Cn1cc(Nc2ncc(F)c(NCc3c(F)cccc3F)n2)cn1    1000 to 10000 nM
CS(=O)(=O)c1ccc(F)c(CNc2nc(Nc3cnn(CCO)c3)ncc2F)c1    1000 to 10000 nM
C[C@H]1COCCN1C(=O)Cn1cc(Nc2nccc(NCc3c(F)cc(F)cc3F)n2)cn1    1000 to 10000 nM

Ask: For the molecule CC(CO)n1cc(Nc2ncc(Cl)c(NCc3ccccc3)n2)cn1 (centres unmarked) , what IC50 is on record?
Reply: 100 to 1000 nM

Ask: For the molecule CS(=O)(=O)c1cccc(CNc2nc(Nc3cnn(CC(N)=O)c3)ncc2Cl)c1 , what IC50 is on record?
Reply: 100 to 1000 nM

Ask: For the molecule NS(=O)(=O)c1ccc(CNc2nc(Nc3cnn(CC(=O)N4CCCCC4)c3)ncc2F)cc1 , what IC50 is on record?
Reply: > 10000 nM

Ask: For the molecule CNC(=O)Cn1cc(Nc2ncc(Cl)c(NCc3cccc(CS(C)(=O)=O)c3)n2)cn1 , what IC50 is on record?
Reply: 1000 to 10000 nM

Ask: For the molecule COCCNC(=O)Cn1cc(Nc2ncc(Cl)c(NCc3ccccc3)n2)cn1 , what IC50 is on record?
Reply: 1000 to 10000 nM

Ask: For the molecule O=C(Cn1cc(Nc2nccc(NCc3c(F)cc(F)cc3F)n2)cn1)NC1CCOC1 (centres unmarked) , what IC50 is on record?
Reply: 1000 to 10000 nM

Ask: For the molecule CS(=O)(=O)NCc1cccc(CNc2nc(Nc3cnn(CCO)c3)ncc2Cl)c1 , what IC50 is on record?
Reply: 100 to 1000 nM

Ask: For the molecule CCNC(=O)c1cccc(CNc2nc(Nc3cnn(CCO)c3)ncc2Cl)c1 , what IC50 is on record?
Reply: 1000 to 10000 nM

Ask: For the molecule Cn1cc(Nc2ncc(Cl)c(NCc3cc(OC(F)F)ccc3F)n2)cn1 , what IC50 is on record?
Reply: 1000 to 10000 nM

Ask: For the molecule O=C(O)Cn1cc(Nc2ncc(Cl)c(NCc3ccccc3)n2)cn1 , what IC50 is on record?
Reply: 1000 to 10000 nM

Ask: For the molecule C[C@@H](CO)NC(=O)Cn1cc(Nc2nccc(NCc3c(F)cc(F)cc3Cl)n2)cn1 , what IC50 is on record?
Reply: 1000 to 10000 nM
